system: UACC-257 melanoma; experiment: NCI-60 one-dose screen, 48 h; details: 10 µM unless noted
Compounds without any hit were thinned out: in the full panel of roughly 83,000, 20% have a hit. Calls of active or inactive are those of the source. How the source made its calls: active means growth percent below 10; inactive means the rest.
Outcomes: true (active), false (inactive)

> print(dat)
                                    compound  qualitative.label
 1  COc1ccc2nc(NC(=O)c3cc(-c4ccc(F)cc4)n4nc(-c5ccccc5)cc4n3)sc2c1              false
 2                   NC(=O)N/N=C/c1ccc(Br)o1              false
 3  CN1C(=O)C(=Cc2cn(Cc3ccccc3)c3ccc(Br)cc23)C(=O)N(C)C1=O              false
 4  CC12CCC3C(CCC4CC(=O)/C(=C\O)CC43C)C1CCC(=O)O2 (stereo unspecified)              false
 5     O=C(Nc1cccc2ccccc12)c1cc2c(cc1Br)OCO2              false
 6  CCOc1nc(-c2ccccc2)cc2c(O)c(C(=O)n3nc(C)cc3C)[nH]c(=O)c12              false
 7                      COc1ccc(COC(C)=O)cc1              false
 8                  CCCCCCCCSc1ncnc2c1ncn2CO              false
 9  O=C(COC(=O)[C@H](C[Se][Se]C[C@H](NC(=O)c1ccc(Br)cc1F)C(=O)OCC(=O)c1ccc(F)cc1)NC(=O)c1ccc(Br)cc1F)c1ccc(F)cc1               true
10            NC(=O)c1ccccc1NC(=O)c1ccccc1Cl              false
11  CC12CCCCC1C(C(N)=O)C(=O)O2 (stereo unspecified)              false

###

tested on: MDA-MB-435 melanoma; assay: NCI-60 one-dose screen, 48 h (100 = growth as untreated, 0 = no growth, -100 = all killed); settings: 10 µM unless noted
About 83,000 compounds went through this panel and 20% of them were active in at least one assay; those are over-represented in the sample as a whole.
assay readout: growth (%)

> print(dat)
                                    compound        target.system  assay.readout  experimental.value
 1                         CCCc1cccc(CCC)c1O  MDA-MB-435 melanoma         growth                 106
 2  C/C(=C\CCc1ccsc1)CC/C=C(\C)CCCN1CCC(CO)CC1  MDA-MB-435 melanoma         growth                  13
 3  COc1ccc2nccc(/C=C/c3ccnc4ccc(OC)cc34)c2c1  MDA-MB-435 melanoma         growth                 111
 4  C=CC1=C(C(=O)O)N2C(=O)[C@@H](NC(=O)/C(=N\O)c3csc(N)n3)[C@H]2SC1 (stereo in doubt)  MDA-MB-435 melanoma         growth                 109
 5        NC(N)=N/N=C(/c1ccccc1)c1ccc(Cl)cc1  MDA-MB-435 melanoma         growth               -54.4
 6            CC(c1cc(Cl)ccc1O)c1cc(Cl)ccc1O  MDA-MB-435 melanoma         growth               -2.51
 7  CC12CCC3C(CCC4CC(=O)/C(=C\O)CC43C)C1CCC(=O)O2 (configuration not stated)  MDA-MB-435 melanoma         growth                 110
 8  COc1ccc(-c2nn(-c3cccc(Cl)c3)cc2C2CC(c3ccccc3)=NN2C(C)=O)cc1 (configuration not stated)  MDA-MB-435 melanoma         growth                88.5
 9                    NC(=O)NN=C(C1CC1)C1CC1  MDA-MB-435 melanoma         growth                 105
10  N#CCCCCCn1c2ccccc2c2c3c(c4c5ccccc5[nH]c4c21)C(=O)N(O)C3=O  MDA-MB-435 melanoma         growth                14.3
11                              O=C(O)C(=O)O  MDA-MB-435 melanoma         growth                96.4
12                  CCCCCCCCSc1ncnc2c1ncn2CO  MDA-MB-435 melanoma         growth                82.6
